study system: USP33 DUSP2 domain (Homo sapiens)
Construct: USP33_DUSP2; Q8TEY7; DUSP2; 806; 921; 6xHis-GST (N, cleaved yes); made in house; host or cells: Escherichia coli BL21-Gold (DE3)
Sequence (Q8TEY7 with tags, fused parts or gaps): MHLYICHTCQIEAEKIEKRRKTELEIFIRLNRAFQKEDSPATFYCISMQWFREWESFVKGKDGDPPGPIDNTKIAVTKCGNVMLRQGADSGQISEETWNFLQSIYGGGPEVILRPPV
assay summary: FP-monitored affinity measurements, USP33 DUSP2
Type: binding
protocol conditions: USP33_DUSP2; FP displacement by unlabelled peptide; read-out: KD

substance: Ac-PYIPMDDKFQLRSFDQLS-NH2 [HIF1A_D571K]
study system: USP33 DUSP2 domain (Homo sapiens)
Kd: ~145 µM

substance: Ac-SDDDLAWNIAPQGLQ-NH2 [GPR137B348-362]
study system: USP33 DUSP2 domain (Homo sapiens)
Kd: ~228 µM

substance: Ac-PYIPMDDDFQARSFDQLS-NH2 [HIF1A_L574A]
study system: USP33 DUSP2 domain (Homo sapiens)
Kd: ~227 µM

substance: Ac-PYIPMDGEDFQLSPICPE-NH2 [HIF2A]
study system: USP33 DUSP2 domain (Homo sapiens)
Kd: ~1180 µM
